Source: patent US6921764B2

The following compounds are shown together with reported melting point values.

q: Recorded melting point of O=c1c2cc(F)ccc2nc(CNc2ncccn2)n1-c1ccccc1Cl , please.
a: 182 to 185 °C

* * *

The following compounds are shown together with reported melting point values.

q: Recorded melting point of N#Cc1cccnc1NCc1nc2ccc(F)cc2c(=O)n1-c1ccccc1Cl , please.
a: 145 to 150 °C

q: Queued: O=c1c2cc(F)ccc2nc(CNc2cccc(CN3CCCC3)c2)n1-c1ccccc1Cl
a: 105 to 110 °C

q: Queued: Cc1cccc(NCc2nc3ccc(F)cc3c(=O)n2-c2cccnc2Cl)n1
a: 190 to 195 °C
